Target: T1, GRIP1_4, Q9Y3R0
T1 sequence (Q9Y3R0 467-571, limits assumed, looked up): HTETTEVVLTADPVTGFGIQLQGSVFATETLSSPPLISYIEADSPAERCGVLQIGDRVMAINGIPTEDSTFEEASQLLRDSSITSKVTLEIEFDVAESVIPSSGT
Experiment: holdup assay
Set-up: key: below the threshold = too weak to quantify, mostly under pKd 3.1 to 4
Details: plain residues with an end cap or a label only (N-terminal biotin on a linker: ado-ado)
measurement_type: pKd

binder="PPGKHLVTEV [KCNA7, Q96RP8]" measurement_type=pKd measured_result="below the threshold"
binder="MQHQRTHTRV [ZSCAN30, Q86W11]" measurement_type=pKd measured_result="below the threshold"
binder="REEPDHSTEV [CCRL2, O00421]" measurement_type=pKd measured_result="below the threshold"
binder="QRPYRRGSEI [KCNJ18, B7U540]" measurement_type=pKd measured_result="below the threshold"
binder="GTGYDRKDYV [CLDN3, O15551]" measurement_type=pKd measured_result="below the threshold"
binder="PTPDLPQTRV [KLHDC7A, Q5VTJ3]" measurement_type=pKd measured_result="below the threshold"
binder="LAHVKHKEQI [AQP3, Q92482]" measurement_type=pKd measured_result="below the threshold"
binder="AAVENKVTDL [PLXNB1, O43157]" measurement_type=pKd measured_result="below the threshold"
